Each recorded value in this set is attributed to the supplement of paper PMC12042874.

- methodSummary: amyloid nucleation score (Sup35N fusion, yeast selection) (log enrichment); library NNK2; higher = more nucleation; inactive = no reads after selection;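 also: zero at mode of non-aggregating sequences after 7 days selection at 30°C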
In this section we review reported amyloid nucleation score values for a set of sequences.

These solved cases illustrate the format of a correct answer.
INSERT INTO measurements (sequencecode, assayvalue) VALUES
  ('PTMYWFPPETATSPPYGPPG', 3.54),
  ('YKCRDLFGGRQINREHYLCY', -1.26),
  ('SSKSHLSLLK', -0.849),
  ('IFNVSMSIVRSLVITCMWGL', 5.32),
  ('WVIVRLIITTDVQCNYVFLP', 0.248),
  ('GVSLLVSTSHGFVREPQVTS', 0.526);

Let's switch to this sequence now.
Prompt line: Can you look up the measured amyloid nucleation score of WSYLVLSPMRRNRVRMVHII for me?
Response line: -0.517

---

- methodSummary: amyloid nucleation score (Sup35N fusion, yeast selection) (log enrichment); library NNK3; higher = more nucleation; inactive = no reads after selection
outcomeMeasure: amyloid nucleation score

Worked cases, answers included:
INSERT INTO assay_data (substance, assayvalue) VALUES
  ('YMLSGPRWFV', 'inactive'),
  ('NFDKFDRRRWVMIIVYMAPA', 'inactive'),
  ('VKSFVSFCSGTLSPLMFRSG', 0.535),
  ('GSGVRGQRMSGKCR', 0.164),
  ('PSNYWNEFYFCSSIHSCGE', 3.28);

Now consider a different substance.
Prompt line: I am curious: what amyloid nucleation score value has been reported for LPSGFLGPLIPVESQIPRTQ ?
Response line: inactive

---

Items are presented alongside their recorded amyloid nucleation score.
- methodSummary: amyloid nucleation score (Sup35N fusion, yeast selection) (log enrichment); library NNK2; higher = more nucleation; inactive = no reads after selection
Number only, please.

INSERT INTO measurements (sequencecode, assayvalue) VALUES
  ('RSVSNDKYVFWFLRLVDVKA', 0.225),
  ('MILEVSDWLGVVCVIKVWLT', 0.561),
  ('VNFVLGVL', 0.086),
  ('NMGIFALGAEQD', -0.039),
  ('TFVHIIHNFVGVQHFKKLGC', 5);

Prompt line: Which amyloid nucleation score is reported for this sequence? DTSVMCFGTYTWLFELFFQW
Response line: -0.334

Prompt line: Which amyloid nucleation score is listed for VVLPFGMHAWYTKDNVEISS ?
Response line: 0.181

Prompt line: So what does the record say about amyloid nucleation score for DNCVIRALQRRNVLVV ?
Response line: -1.18

---

- methodSummary: amyloid nucleation score (Sup35N fusion, yeast selection) (log enrichment); library NNK2; higher = more nucleation; inactive = no reads after selection
outcomeMeasure: amyloid nucleation score
Lab note: jot the number down without any unit.

INSERT INTO measurements (substance, outcomemeasure, assayvalue) VALUES
  ('FFFRSHKTIILVAKG', 'amyloid nucleation score', -0.104),
  ('DVSSPVPGRGQCCVDGCWEF', 'amyloid nucleation score', 6.15),
  ('MFFFYKFMKDKIGN', 'amyloid nucleation score', 4.37),
  ('TANKLLVSIIKIEEYVSRGT', 'amyloid nucleation score', 4.73),
  ('SCPMTSYGE', 'amyloid nucleation score', 0.319),
  ('CMQVYTVEYTGFCCATRARK', 'amyloid nucleation score', 5.09),
  ('GLGAWFEI', 'amyloid nucleation score', 0.485),
  ('SPPLYARHCYILERITTDRM', 'amyloid nucleation score', -1.73);

Prompt line: Please look up its amyloid nucleation score: FVYKTGYVSSVCYGIVVVVD
Response line: -0.826

Prompt line: Which amyloid nucleation score is reported for this substance? VFAWLIVGIWACLFGARIFW
Response line: -0.291

Prompt line: Can you share its amyloid nucleation score? I mean this substance: ICISWPINLCMV
Response line: 2.6

Prompt line: Requested field: amyloid nucleation score. Item: KYTGMKYRPTVCLGVEVQLK
Response line: 3.83

Prompt line: May I ask what amyloid nucleation score has been recorded for TLQMGQSMPSFFGLRWAVYR ?
Response line: 0.503

Prompt line: So what does the record say about amyloid nucleation score for LASTALVLDP ?
Response line: 1.14

Prompt line: Any idea what its amyloid nucleation score is? The substance is DINVCRVYEY
Response line: -0.011

---

- methodSummary: amyloid nucleation score (Sup35N fusion, yeast selection) (log enrichment); library NNK3; higher = more nucleation; inactive = no reads after selection
outcomeMeasure: amyloid nucleation score

INSERT INTO results (substance, outcomemeasure, assayvalue) VALUES
  ('LILIRAVSG', 'amyloid nucleation score', 'inactive'),
  ('EFVFECLYGTLLGRALMLRP', 'amyloid nucleation score', 'inactive'),
  ('GFYNFVFSCASGYRCTGVMG', 'amyloid nucleation score', -0.357),
  ('LLVKSYNLYIMFSPHL', 'amyloid nucleation score', 1.68),
  ('FTPLNDDNKCVVSYEY', 'amyloid nucleation score', 'inactive'),
  ('FIMMRIMSFPISHVCV', 'amyloid nucleation score', 0.708);

Prompt line: I'd like to know its amyloid nucleation score. The substance in question is LQDIPLFFCCVLFCVATMAL
Response line: inactive

Prompt line: What value of amyloid nucleation score has been recorded for this entry: LSECRKD
Response line: inactive

Prompt line: Request the reported amyloid nucleation score associated with CFSYGMWNSLPRWLALN
Response line: inactive

Prompt line: Using the record for QYDLDWFIGRSNARDGLTDW , report its amyloid nucleation score.
Response line: inactive

Prompt line: What measured amyloid nucleation score goes with NDHPVNSWPVGYSADINQVL ?
Response line: inactive

Prompt line: Return reported amyloid nucleation score; argument: QWFAWARQWL
Response line: inactive

---

- methodSummary: amyloid nucleation score (Sup35N fusion, yeast selection) (log enrichment); library NNK3; higher = more nucleation; inactive = no reads after selection
outcomeMeasure: amyloid nucleation score

# count of solved cases: 6
INSERT INTO assay_data (substance, assayvalue) VALUES
  ('GWVFTMDFTSYLECTDMGRS', 'inactive'),
  ('FCFYICGLGFY', 'inactive'),
  ('DMSHMIEICFVTNYTKGYVT', 'inactive'),
  ('SLLVLETDGCFPVAPLAGDS', -0.926),
  ('NSNYSVG', 'inactive'),
  ('WKYWIWVFMNATYMDCVGML', 'inactive');

Prompt line: Request the reported amyloid nucleation score associated with CIAMKMWKNIRRWWSGRVAG
Response line: inactive

Prompt line: What value of measured amyloid nucleation score is listed for SGWIYMERIAS ?
Response line: inactive

Prompt line: Quick check: amyloid nucleation score of KSQLFLMWSSSKLLTYTVQA ?
Response line: inactive

Prompt line: Can you look up the measured amyloid nucleation score of FCGAYLVVIAEFL for me?
Response line: inactive

Prompt line: Form field: reported amyloid nucleation score of NDHLLL
Response line: inactive

Prompt line: Using the record for HLCRFYSSFGDSTSSRLSGN , report its amyloid nucleation score.
Response line: inactive

Prompt line: Field request: amyloid nucleation score | item: TALGSDMTYITARRI
Response line: 0.671

Prompt line: Quick check: amyloid nucleation score of RCMPRCALACTRLSPGRSVV ?
Response line: inactive

---

- methodSummary: amyloid nucleation score (Sup35N fusion, yeast selection) (log enrichment); library NNK1; higher = more nucleation; inactive = no reads after selection
outcomeMeasure: amyloid nucleation score
Please give only the number in your answer, with no unit.

Consider the following illustrative entries.
INSERT INTO assay_data (substance, outcomemeasure, assayvalue) VALUES
  ('VHAHVSREIFTGQ', 'amyloid nucleation score', 0.659),
  ('MSMVNKTSWCYLFCNLRVVY', 'amyloid nucleation score', -1.08),
  ('IRSLITMVGTGLGPLAR', 'amyloid nucleation score', 0.876);

Prompt line: Quick one: amyloid nucleation score of YESCRVHVSIIYPPASGHRA ?
Response line: 2.9

Prompt line: May I ask what amyloid nucleation score has been recorded for SFEFGSSGRICVCIMFPVER ?
Response line: 1.08

Prompt line: Returns the measured amyloid nucleation score for the input substance. Input: KCFSGYWVLARLRVKFLRVG
Response line: -0.275

Prompt line: Consider the substance shown here: SGYSLASVVILLKAVYCLGW What is its recorded amyloid nucleation score?
Response line: 0.627

Prompt line: Give the measured amyloid nucleation score of MFTNLQIWWDSMACYFWDVF .
Response line: 0.923

Prompt line: What value of amyloid nucleation score has been recorded for this entry: RKLDASHYMPVSDLEFCCMC
Response line: 6.75

Prompt line: Entry under review: IAVFWCFKMNWALMMRTKDM . Reported amyloid nucleation score?
Response line: 0.13

Prompt line: Field request: amyloid nucleation score | item: HSTLFGSKFWGKTQHNFDS
Response line: -0.151

Prompt line: Recorded amyloid nucleation score of YIAVGV , please.
Response line: 0.015

Prompt line: Query: amyloid nucleation score; subject: RVRLVWSSCQGDEGFYGLCP
Response line: 1.36

Prompt line: Field request: amyloid nucleation score | item: SSKLDVCEFADDGQLVFGVG
Response line: -0.394

Prompt line: For the substance shown here, IVEGVPGTRPHVLAKCSDEC , give the reported amyloid nucleation score.
Response line: 0.232
